Substrate: CC(=O)N[C@H]1[C@H](Oc2ccc3c(C)cc(=O)oc3c2)O[C@H](CO)[C@@H](O[C@@H]2O[C@H](CO)[C@@H](O)[C@H](O)[C@H]2NC(C)=O)[C@@H]1O
Experiment: fluorogenic substrate hydrolysis, Michaelis-Menten non-linear fit
Assay type: biochemical, Pseudoalteromonas aurantia
Conditions: McIlvaine's buffer pH 5.0, substrate 0.01-0.6 mM, temperature not given for kinetics
MEASURED_PROPERTY: Vmax
Report field: quantity (unit follows the number).

Exercise: Name the reported Vmax value associated with the protein Chi23 (Pseudoalteromonas aurantia; Q157A) (protein, pET22b NdeI/XhoI, His-tagged (C-terminal by primer design), E. coli BL21(DE3); monomer; forward primer encodes MSKTITYYNS, reverse primer encodes AQSLNS at the C-terminus) MSKTITYYNSGAVPLINASELPYDVVNLAFLSSSSNNPFNLVLSGAIAATESSFTTNTIEAIKVMQHKGQKVLISFGGGTMGSNAYRSLSEDTAKLADSLASFVKNNQLDGVDIDYEDTAAFTGQAGYDGAQFLISLTQELRKRLPSPDYIISHAPAPPYLEQGGYMAGYVEVVELVGQEIDWLNVQFYNNPPWSANPDQIVSSYLNYTKLPNMSPEKVIAGFPVTQNDAGSGYMPVQTIINEVIKPIQQQSSLGGIMNWQFSSDHNGDWIKAIAQSLNS
Solution: 0.0044 µmol/min/mg
